assay system: human Bisphosphoglycerate mutase (hBPGM) (Homo sapiens (Human), UniProt P07738)
Sequence (P07738 whole entry): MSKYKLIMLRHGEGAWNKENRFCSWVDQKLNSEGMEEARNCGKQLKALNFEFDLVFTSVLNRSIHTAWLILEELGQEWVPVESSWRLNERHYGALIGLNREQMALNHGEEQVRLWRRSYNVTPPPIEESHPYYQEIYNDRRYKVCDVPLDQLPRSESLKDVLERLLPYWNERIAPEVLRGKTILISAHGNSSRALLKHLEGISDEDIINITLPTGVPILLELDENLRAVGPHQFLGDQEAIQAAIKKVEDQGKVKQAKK
assay name: BPGM Phosphatase Assay
condition label: Table 6 additional results; read-out: huBPGM: phosphatase Enzyme EC50
reported metric: pEC50
Answers are plain numbers, as −log10 of the molar value.

Take a look at these entries with their results.
smiles	reported metric	experimental result
Cc1nc(CNC(=O)C(C)(C)C)sc1-c1csc(-c2cc(O)c(C(=O)O)cc2F)c1	pEC50	7.05
Cc1nc(CNC(=O)CCN(C)C)sc1-c1csc(-c2cc(O)c(C(=O)O)cc2F)n1	pEC50	6.74
Cc1nc(Cc2cccnc2)sc1-c1csc(-c2ccc(C(=O)O)c(O)c2)n1	pEC50	6.54
Cc1nc(C)c(-c2nsc(-c3cc(O)c(C(=O)O)c(F)c3F)n2)s1	pEC50	6.47
Cc1nc(COC(=O)N2CCN(C)CC2)sc1-c1csc(-c2cc(O)c(C(=O)O)cc2F)n1	pEC50	6.89
Cc1cnc(OCc2nc(C)c(-c3csc(-c4cc(O)c(C(=O)O)cc4F)n3)s2)nc1	pEC50	7.30
Cc1nc(CNC(=O)C(C)(C)C)sc1-c1csc(-c2cc(O)c(C(=O)O)cc2F)n1	pEC50	7.30
Cc1nc(CNC2CCCCC2)sc1-c1csc(-c2cc(O)c(C(=O)O)cc2F)n1	pEC50	6.64
Cc1nc(Cn2ccccc2=O)sc1-c1cccc(-c2ccc(C(=O)O)c(O)c2)n1	pEC50	5.14
Cc1nc(CNC(=O)C2CC2)sc1-c1ccc(-c2ccc(C(=O)O)c(O)c2)s1	pEC50	6.09

// for each molecule below, give its pEC50
1. Cc1nc(CNc2ccn(C)n2)sc1-c1csc(-c2cc(O)c(C(=O)O)cc2F)n1
2. Cc1nc(COc2cccc(C#N)c2)sc1-c1cccc(-c2ccc(C(=O)O)c(O)c2)c1

A:
1: 7.46; 2: 6.30

Q: // pEC50 lookup, key: Cc1nc(CN)sc1-c1csc(-c2cc(O)c(C(=O)O)cc2F)c1
A: 6.40

* * *

// values below are log10(IC50); system is hBPGM (Homo sapiens (Human), UniProt P07738)
The common logarithm of IC50 in nM is what is listed.

Take a look at these entries with their results.
molecule	reported metric	experimental result
Cc1nc(COCC2CCCO2)sc1-c1cccc(-c2ccc(C(=O)O)cc2)c1 (stereo not shown) [Example 46]	log10(IC50)	3.08
Cc1nc(COC(=O)N(C)C)sc1-c1cccc(-c2ccc(C(=O)O)cc2)n1 [Example 64]	log10(IC50)	2.96
Cc1nc(CN2CCCC2=O)sc1-c1cccc(-c2ccc(C(=O)O)c(O)c2)c1 [Example 260]	log10(IC50)	3.15
Cc1nc(CNC2CCCCC2)sc1-c1csc(-c2cc(O)c(C(=O)O)cc2F)n1 [Example 174]	log10(IC50)	2.72

// for each molecule below, give its log10(IC50)
1. Cc1nc(COc2cc(C(F)(F)F)nn2C)sc1-c1cccc(-c2ccc(C(=O)O)cc2)n1 [Example 65]
2. COC(=O)NCc1nc(C)c(-c2cccc(-c3cc(O)c(C(=O)O)cc3F)n2)s1 [Example 235]
3. Cc1nc(COC(=O)N(C)C)sc1-c1cccc(-c2ccc(C(=O)O)cc2)c1 [Example 67]
4. Cc1nc(CN2CCOCC2=O)sc1-c1cccc(-c2ccc(C(=O)O)c(O)c2)c1 [Example 261]
5. COC(=O)NCc1nc(C)c(-c2cc(-c3ccc(C(=O)O)c(O)c3)sn2)s1 [Example 157]
6. Cc1nc(COc2ncccn2)sc1-c1cccc(-c2ccc(C(=O)O)cc2F)n1 [Example 83]
7. Cc1nc(COc2ccc(F)cn2)sc1-c1ccn(-c2ccc(C(=O)O)cc2)n1 [Example 18]
8. Cc1nc(COc2cccnc2)sc1-c1cccc(-c2ccc(C(=O)O)c(O)c2)c1 [Example 102]

A:
[3.41, 2.04, 2.94, 4.30, 2.90, 2.56, 2.81, 2.95]

// for each molecule below, give its log10(IC50)
1. Cc1nc(CNC(=O)OC(C)C)sc1-c1csc(-c2cc(O)c(C(=O)O)cc2F)n1 [Example 234]
2. Cc1nc(CNC(=O)N2CCCC2)sc1-c1csc(-c2cc(O)c(C(=O)O)cc2F)n1 [Example 198]

A:
1.92
1.70

// for each molecule below, give its log10(IC50)
1. Cc1nc(CNC(=O)C2CC2)sc1-c1csc(-c2ccc(C(=O)O)c(O)c2)n1 [Example 249]
2. COC(=O)NCc1nc(C)c(-c2csc(-c3ccc(C(=O)O)c(O)c3)n2)s1 [Example 213]
3. Cc1nc(C(=O)c2ccn(C)n2)sc1-c1csc(-c2ccc(C(=O)O)c(O)c2)n1 [Example 190]
4. Cc1nc(COc2ccn(C)n2)sc1-c1csc(-c2cc(O)c(C(=O)O)cc2F)n1 [Example 219]
5. Cc1nc(C(C)NC(=O)C(C)(C)C)sc1-c1csc(-c2cc(O)c(C(=O)O)cc2F)n1 (stereo not shown) [Example 141]
6. Cc1nc(Cc2cccnc2)sc1-c1csc(-c2ccc(C(=O)O)c(O)c2)n1 [Example 250]

A:
[2.26, 2.11, 2.56, 2.08, 2.11, 2.40]

* * *

assay system: human Bisphosphoglycerate mutase (hBPGM) (Homo sapiens (Human), UniProt P07738)
assay name: BPGM Phosphatase Assay
condition label: Table 6 additional results; read-out: huBPGM: phosphatase Enzyme EC50
reported metric: EC50

Take a look at these entries with their results.
compound	EC50
Cc1nc(CNC(=O)N2CCCC2)sc1-c1csc(-c2cc(O)c(C(=O)O)cc2F)n1 [Example 198]	190 nM
Cc1nc(C(C)NC(=O)C(C)(C)C)sc1-c1csc(-c2cc(O)c(C(=O)O)cc2F)n1 (centres unmarked) [Example 141]	70 nM
COC(=O)NCc1nc(C)c(-c2cc(-c3cc(O)c(C(=O)O)cc3F)sn2)s1 [Example 168]	530 nM
Cc1nc(CNC(=O)C2CC2)sc1-c1csc(-c2ccc(C(=O)O)c(O)c2)c1 [Example 97]	160 nM

// for each compound below, give its EC50
1. Cc1nc(CNC(=O)CN(C)C)sc1-c1csc(-c2cc(O)c(C(=O)O)cc2F)n1 [Example 120]
2. Cc1nc(NCC(=O)N(C)C)sc1-c1csc(-c2cc(O)c(C(=O)O)cc2F)n1 [Example 178]
3. COC(=O)C(=O)NCc1nc(C)c(-c2csc(-c3cc(O)c(C(=O)O)cc3F)n2)s1 [Example 201]
4. Cc1nc(Cn2cccnc2=O)sc1-c1csc(-c2cc(O)c(C(=O)O)cc2F)n1 [Example 181]

A:
1: > 25000 nM; 2: 3100 nM; 3: 640 nM; 4: 80 nM

* * *

// values below are IC50; system is hBPGM (Homo sapiens (Human), UniProt P07738)
Answers are plain numbers, in µM.

compound	IC50 / µM
COC(=O)N[C@@H](C)c1nc(C)c(-c2csc(-c3cc(O)c(C(=O)O)cc3F)n2)s1	0.059
Cc1nc(Cn2ccccc2=O)sc1-c1cccc(-c2ccc(C(=O)O)c(O)c2)c1	2.2
Cc1nc(Cn2cccn2)sc1-c1cccc(-c2cc(O)c(C(=O)O)cc2F)n1	0.15
Cc1nc(CNC(=O)C(C)(C)C)sc1-c1cccc(-c2cc(O)c(C(=O)O)cc2F)n1	0.5
Cc1nc(COc2ncccn2)sc1-c1cccc(-c2ccc(C(=O)N[C@@H](C(=O)O)c3ccccc3)cc2)n1	2.7

// for each compound below, give its IC50
1. Cc1nc(Cc2cccc(C(F)(F)F)c2)sc1-c1cccc(-c2ccc(C(=O)O)c(O)c2)c1
2. COC(=O)NCc1nc(C)c(-c2csc(-c3cc(C)c(C(=O)O)c(O)c3)n2)s1
3. COC(=O)NCc1nc(C)c(-c2ccnc(-c3ccc(C(=O)O)c(O)c3)n2)s1
4. Cc1nc(C)c(-c2ccc(C#N)c(-c3ccc(C(=O)O)c(O)c3)c2)s1
5. Cc1nc(COc2ncccn2)sc1-c1cccc(-c2cc(C(=O)O)co2)n1
6. Cc1nc(COc2ccc(Cl)cn2)sc1-c1cccc(-c2ccc(C(=O)O)c(O)c2)c1
7. COC(=O)NCc1nc(C)c(-c2csc(-c3cc(O)c(C(=O)O)cc3C)n2)s1
8. Cc1nc(COc2ccccn2)sc1-c1csc(-c2cc(O)c(C(=O)O)cc2F)c1

A:
1: 3; 2: 0.36; 3: 0.16; 4: 44; 5: 18; 6: 1.8; 7: 0.07; 8: 0.46

// for each compound below, give its IC50
1. Cc1nc(COCC2CCCCO2)sc1-c1cccc(-c2ccc(C(=O)O)cc2)c1 (stereo not drawn)
2. Cc1nc(CNC(=O)c2cc[nH]n2)sc1-c1csc(-c2cc(O)c(C(=O)O)cc2F)n1
3. Cc1nc(Cc2ccn(C)n2)sc1-c1csc(-c2cc(O)c(C(=O)O)cc2F)n1
4. Cc1nc(COc2ccc(C(F)(F)F)cn2)sc1-c1cccc(-c2ccc(C(=O)O)cc2)n1
5. Cc1nc(COc2ncccn2)sc1-c1cccc(-c2ccc(C(=O)O)c(O)c2)c1
6. Cc1nc(COc2ccnn2C)sc1-c1csc(-c2cc(O)c(C(=O)O)cc2F)n1
7. Cc1nc(CNC(=O)C(C)CN(C)C)sc1-c1csc(-c2cc(O)c(C(=O)O)cc2F)n1 (stereo not drawn)
8. COCCOCCOCCOCCOCC(=O)NCc1nc(C)c(-c2csc(-c3ccc(C(=O)O)c(O)c3)n2)s1

A:
1. 1.4
2. 0.04
3. 0.065
4. 3.3
5. 0.19
6. 0.13
7. 0.17
8. 1.8

// for each compound below, give its IC50
1. Cc1nc(COc2ncccn2)sc1-c1cccc(-c2ccc(C(=O)NC(CC(=O)O)c3ccccc3)cc2)n1 (stereo not drawn)
2. Cc1nc(C)c(-c2cc(-c3ccc(C(=O)O)c(O)c3)ccn2)s1
3. Cc1nc(CNC2CCC2)sc1-c1csc(-c2cc(O)c(C(=O)O)cc2F)n1

A:
[2.6, 9.3, 0.38]

meta.source: patent US20230348450A1
